- Tested on: HIT-T15
- method: Cytoprotective activity in hamster HIT-T15 cells assessed as inhibition of IFN-gamma/TNFalpha/IL1beta-induced cell death at 1 to 100 nM after 24 hrs by MTT assay relative to control
- Format: functional, cell-based
- run_parameters: Mesocricetus auratus
Active and inactive are the calls of the source. The rule behind the calls is not given here.
readout_name: Activity

In the examples that follow, each entry is paired with its recorded Activity.
H-SPEHQAVQ-NH2 :: inactive
H-SPAHQRVQ-NH2 :: Active
H-QQVRQHEPSLFSSG-OH :: inactive
H-GSSFLSPEHQRVQQ-NH2 :: Active
H-APEHQRVQ-NH2 :: Active

Shift focus to the following entry.
Recall the recorded Activity for `H-GSSFLSPEHQRVQQRKES-NH2` with HIT-T15 and state it.
Active

###

- Tested on: HIT-T15
- method: Cytoprotective activity in hamster HIT-T15 cells assessed as inhibition of IFN-gamma/TNFalpha/IL1beta-induced cell death at 1 to 100 nM after 24 hrs by MTT assay relative to control
- Format: functional, cell-based
- run_parameters: Mesocricetus auratus
The source made the active and inactive calls. The rule behind the calls is not given here.
Tick one outcome: 1.0 (active), 0.0 (inactive)

Would you mind telling me which call this test gave `H-SPEHQRVA-NH2` ?
1.0

Would you mind telling me which call this test gave `H-SPEAQRVQ-NH2` ?
1.0

Would you mind telling me which call this test gave `H-SPEHQRAQ-NH2` ?
1.0

Would you mind telling me which call this test gave `H-SPEHARVQ-NH2` ?
0.0

###

- System: HIT-T15
- method: Cytoprotective activity in hamster HIT-T15 cells assessed as inhibition of IFN-gamma/TNFalpha/IL1beta-induced cell death at 1 to 100 nM after 24 hrs by MTT assay relative to control
- Type: functional, cell-based
- run_parameters: Mesocricetus auratus
Active and inactive are the calls of the source. No cut-off for these calls is given here.
readout_name: Activity

H-SAEHQRVQ-NH2 :: Active
H-EHQRVQ-NH2 :: Active
